# target_of_assay: EGFR (Homo sapiens)
# Construct: host or cells: A431
# Sequence (P00533 25-1210): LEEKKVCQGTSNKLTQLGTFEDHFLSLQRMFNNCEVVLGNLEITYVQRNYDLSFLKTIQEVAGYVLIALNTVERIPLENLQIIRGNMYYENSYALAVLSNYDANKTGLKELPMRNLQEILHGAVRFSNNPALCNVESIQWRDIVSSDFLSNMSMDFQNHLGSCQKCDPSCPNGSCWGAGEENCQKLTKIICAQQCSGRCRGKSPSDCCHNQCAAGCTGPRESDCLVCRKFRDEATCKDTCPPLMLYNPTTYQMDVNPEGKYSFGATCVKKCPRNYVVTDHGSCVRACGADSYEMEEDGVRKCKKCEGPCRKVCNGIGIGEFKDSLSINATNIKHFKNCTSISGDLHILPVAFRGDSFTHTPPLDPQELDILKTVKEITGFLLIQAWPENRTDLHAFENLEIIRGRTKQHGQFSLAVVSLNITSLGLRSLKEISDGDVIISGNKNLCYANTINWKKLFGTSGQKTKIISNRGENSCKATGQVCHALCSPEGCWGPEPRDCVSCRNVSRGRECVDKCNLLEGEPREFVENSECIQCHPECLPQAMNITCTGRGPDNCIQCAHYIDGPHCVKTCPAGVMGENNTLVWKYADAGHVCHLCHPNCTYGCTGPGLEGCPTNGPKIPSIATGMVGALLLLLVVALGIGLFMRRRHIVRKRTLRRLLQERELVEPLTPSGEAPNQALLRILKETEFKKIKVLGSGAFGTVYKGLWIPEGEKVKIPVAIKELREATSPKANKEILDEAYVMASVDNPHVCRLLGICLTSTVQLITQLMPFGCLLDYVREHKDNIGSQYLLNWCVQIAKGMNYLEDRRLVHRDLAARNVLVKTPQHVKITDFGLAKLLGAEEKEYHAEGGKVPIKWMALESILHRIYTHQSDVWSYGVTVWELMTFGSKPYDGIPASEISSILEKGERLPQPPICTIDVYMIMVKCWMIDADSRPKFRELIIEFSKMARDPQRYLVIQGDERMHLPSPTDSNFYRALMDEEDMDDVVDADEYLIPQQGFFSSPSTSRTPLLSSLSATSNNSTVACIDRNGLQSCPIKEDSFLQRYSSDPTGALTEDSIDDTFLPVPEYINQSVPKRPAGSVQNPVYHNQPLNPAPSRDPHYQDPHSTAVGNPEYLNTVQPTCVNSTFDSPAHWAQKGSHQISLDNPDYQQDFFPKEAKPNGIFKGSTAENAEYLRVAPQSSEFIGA
# test_name: EGFR in-cell Western (ICW) screening protocol (EGFR inhibition assay)
# Type: cell-based
# Parameters: unit not given here
# measurement_parameters: ICW assay, average of runs 1 and 2
Counter-ions that a name gives are not always drawn.
# maps each entry to its ICW Avg
No unit in the answer, please; the number alone is enough.

Recorded results for 3 molecules are shown here.
INSERT INTO assay_data (molecule, measured_result) VALUES
  ('COc1ccc(-c2cc(=O)[nH]c(Nc3nc(C)c4ccccc4n3)n2)cc1OC [11471 + TFA]', 39.92),
  ('CCCc1cc(=O)[nH]c(Nc2nc(C)c3ccc(C)cc3n2)n1 [compound 12655]', 31.68),
  ('COc1ccc2nc(Nc3nc(CSc4ccc(C)cc4)cc(=O)[nH]3)nc(C)c2c1 [compound 11617]', 29.18);

Entry Cc1cc(C(F)(F)F)nc(Nc2nc(C)c3ccccc3n2)n1 [compound 11457] has what ICW Avg? 28.58

So what's the measured ICW Avg for this one? CCOc1cccc2c(C)nc(Nc3nc(CSc4ccc(C)cc4)cc(=O)[nH]3)nc12 [compound 11755] 37.09
